The compounds listed here are annotated with their inhibition at 0.33 µM.
- Assay system: N-type calcium channel (α1B (Cav2.2), β3 and α2δ subunits) (Homo sapiens)
- Sequence (Q00975 whole entry): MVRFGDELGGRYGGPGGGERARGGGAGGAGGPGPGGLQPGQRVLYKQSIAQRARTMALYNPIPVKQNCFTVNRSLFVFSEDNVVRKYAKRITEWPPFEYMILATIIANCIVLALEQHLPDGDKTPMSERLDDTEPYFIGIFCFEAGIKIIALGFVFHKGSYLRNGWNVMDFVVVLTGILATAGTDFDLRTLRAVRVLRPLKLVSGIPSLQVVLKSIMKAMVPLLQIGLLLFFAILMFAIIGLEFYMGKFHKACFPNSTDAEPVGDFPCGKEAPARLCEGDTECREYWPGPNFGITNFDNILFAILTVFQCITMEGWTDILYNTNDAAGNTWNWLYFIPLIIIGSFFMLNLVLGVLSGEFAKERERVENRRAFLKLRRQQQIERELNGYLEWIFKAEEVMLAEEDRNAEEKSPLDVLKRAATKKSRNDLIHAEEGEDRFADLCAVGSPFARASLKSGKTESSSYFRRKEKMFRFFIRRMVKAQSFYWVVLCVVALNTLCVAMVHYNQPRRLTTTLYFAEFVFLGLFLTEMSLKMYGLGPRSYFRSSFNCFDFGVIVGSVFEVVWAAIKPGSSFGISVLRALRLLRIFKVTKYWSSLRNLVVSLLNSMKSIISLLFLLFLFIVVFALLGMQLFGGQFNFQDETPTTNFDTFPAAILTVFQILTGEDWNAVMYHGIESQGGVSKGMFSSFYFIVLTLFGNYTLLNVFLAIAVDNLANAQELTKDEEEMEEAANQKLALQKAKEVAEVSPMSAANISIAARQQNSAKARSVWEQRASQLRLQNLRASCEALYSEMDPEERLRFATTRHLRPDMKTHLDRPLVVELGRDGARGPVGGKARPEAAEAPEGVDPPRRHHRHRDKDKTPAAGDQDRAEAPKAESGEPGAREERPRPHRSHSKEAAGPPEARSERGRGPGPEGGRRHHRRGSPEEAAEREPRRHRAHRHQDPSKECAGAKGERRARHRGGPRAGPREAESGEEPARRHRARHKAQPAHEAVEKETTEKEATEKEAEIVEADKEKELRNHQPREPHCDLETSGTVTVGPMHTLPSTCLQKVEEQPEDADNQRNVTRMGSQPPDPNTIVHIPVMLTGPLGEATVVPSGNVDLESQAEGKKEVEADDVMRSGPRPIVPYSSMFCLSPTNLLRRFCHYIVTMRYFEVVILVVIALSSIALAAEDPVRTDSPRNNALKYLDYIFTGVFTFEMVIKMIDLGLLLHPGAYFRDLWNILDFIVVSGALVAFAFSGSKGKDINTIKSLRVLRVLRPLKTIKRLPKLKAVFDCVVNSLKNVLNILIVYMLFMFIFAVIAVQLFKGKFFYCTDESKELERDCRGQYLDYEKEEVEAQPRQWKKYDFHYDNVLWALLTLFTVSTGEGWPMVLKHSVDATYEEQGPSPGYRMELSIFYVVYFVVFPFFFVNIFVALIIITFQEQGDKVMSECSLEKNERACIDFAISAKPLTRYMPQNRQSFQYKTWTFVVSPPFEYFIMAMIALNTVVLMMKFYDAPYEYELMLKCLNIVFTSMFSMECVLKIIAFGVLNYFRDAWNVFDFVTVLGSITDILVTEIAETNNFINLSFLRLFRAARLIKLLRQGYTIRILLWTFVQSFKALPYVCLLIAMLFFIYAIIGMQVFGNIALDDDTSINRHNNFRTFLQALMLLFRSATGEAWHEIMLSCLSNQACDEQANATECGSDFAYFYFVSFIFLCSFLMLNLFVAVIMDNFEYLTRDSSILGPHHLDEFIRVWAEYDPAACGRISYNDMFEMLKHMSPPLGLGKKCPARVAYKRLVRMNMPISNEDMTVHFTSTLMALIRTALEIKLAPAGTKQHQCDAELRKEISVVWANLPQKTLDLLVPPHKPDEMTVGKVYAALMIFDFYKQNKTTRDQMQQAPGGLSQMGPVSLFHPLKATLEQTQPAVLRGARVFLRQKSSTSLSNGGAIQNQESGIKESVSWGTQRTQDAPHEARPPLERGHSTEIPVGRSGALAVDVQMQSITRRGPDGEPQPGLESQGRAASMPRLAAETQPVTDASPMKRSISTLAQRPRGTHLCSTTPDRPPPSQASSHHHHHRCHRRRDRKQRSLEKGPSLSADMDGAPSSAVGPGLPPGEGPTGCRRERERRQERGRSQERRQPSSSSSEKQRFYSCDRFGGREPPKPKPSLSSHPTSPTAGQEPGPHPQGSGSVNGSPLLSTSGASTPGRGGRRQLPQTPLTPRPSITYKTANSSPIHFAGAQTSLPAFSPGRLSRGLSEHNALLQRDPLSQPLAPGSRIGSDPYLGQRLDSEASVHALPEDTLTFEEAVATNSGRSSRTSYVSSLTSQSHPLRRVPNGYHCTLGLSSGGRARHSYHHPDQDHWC
- Sequence (P54284 whole entry partner): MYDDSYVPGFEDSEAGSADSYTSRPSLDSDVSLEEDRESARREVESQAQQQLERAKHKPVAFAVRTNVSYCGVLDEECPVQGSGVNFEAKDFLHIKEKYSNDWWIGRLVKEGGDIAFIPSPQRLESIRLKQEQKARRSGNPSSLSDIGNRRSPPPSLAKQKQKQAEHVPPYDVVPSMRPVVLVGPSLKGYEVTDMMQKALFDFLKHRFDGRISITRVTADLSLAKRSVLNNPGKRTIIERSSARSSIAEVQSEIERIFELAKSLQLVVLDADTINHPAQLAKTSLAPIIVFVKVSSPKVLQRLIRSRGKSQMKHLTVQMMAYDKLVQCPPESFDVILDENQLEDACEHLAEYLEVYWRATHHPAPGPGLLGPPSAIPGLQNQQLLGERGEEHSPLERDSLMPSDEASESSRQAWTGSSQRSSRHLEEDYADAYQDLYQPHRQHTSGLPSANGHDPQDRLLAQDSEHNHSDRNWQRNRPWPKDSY
- Sequence (P54289 25-946 partner limits assumed): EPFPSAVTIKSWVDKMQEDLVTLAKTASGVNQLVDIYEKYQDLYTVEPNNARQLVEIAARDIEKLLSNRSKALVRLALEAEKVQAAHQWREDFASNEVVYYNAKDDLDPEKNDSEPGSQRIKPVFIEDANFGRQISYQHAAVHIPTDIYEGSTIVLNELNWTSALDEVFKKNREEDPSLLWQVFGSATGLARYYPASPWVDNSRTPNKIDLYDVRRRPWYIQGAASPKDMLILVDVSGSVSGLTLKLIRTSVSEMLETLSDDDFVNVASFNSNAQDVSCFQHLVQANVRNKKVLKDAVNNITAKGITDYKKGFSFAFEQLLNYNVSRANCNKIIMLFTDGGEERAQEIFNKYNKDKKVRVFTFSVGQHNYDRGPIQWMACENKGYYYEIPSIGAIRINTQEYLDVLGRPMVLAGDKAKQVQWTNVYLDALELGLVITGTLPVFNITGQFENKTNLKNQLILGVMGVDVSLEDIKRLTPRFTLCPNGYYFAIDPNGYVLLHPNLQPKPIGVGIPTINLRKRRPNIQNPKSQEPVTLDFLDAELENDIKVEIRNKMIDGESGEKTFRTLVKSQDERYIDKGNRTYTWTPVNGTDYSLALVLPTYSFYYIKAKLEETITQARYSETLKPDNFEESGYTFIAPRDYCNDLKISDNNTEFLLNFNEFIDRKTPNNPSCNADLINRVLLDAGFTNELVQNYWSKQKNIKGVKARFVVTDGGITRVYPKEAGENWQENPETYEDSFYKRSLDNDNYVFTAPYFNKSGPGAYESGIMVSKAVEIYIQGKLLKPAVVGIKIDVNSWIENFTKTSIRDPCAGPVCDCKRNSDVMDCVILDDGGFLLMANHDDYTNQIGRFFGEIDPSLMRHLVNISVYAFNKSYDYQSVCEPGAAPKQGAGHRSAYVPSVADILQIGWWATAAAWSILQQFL
- Sequence (P54289 947-1103 partner limits assumed): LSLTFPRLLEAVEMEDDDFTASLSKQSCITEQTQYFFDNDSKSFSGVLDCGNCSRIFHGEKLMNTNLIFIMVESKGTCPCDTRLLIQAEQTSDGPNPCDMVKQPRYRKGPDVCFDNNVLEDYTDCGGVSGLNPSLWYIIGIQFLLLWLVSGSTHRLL
- Assay overview: Functional Assay: Antagonism of N-Type Calcium Channel (FDSS calcium mobilization, KCl depolarization)
- Type: cell-based
- Condition context: 0.33 μM
Field: numeric (%). Do not append units.

Would you please look over these solved cases?
Compound	inhibition at 0.33 µM (%)
COc1ccccc1-n1nc2c(c1-c1ccc(Cl)cc1)CC1(C2)O[C@H]2CCC[C@H]2O1 (stereo partly shown)	90
CCC(CC)CO[C@@H]1Cc2nn(-c3ccccc3OC)c(-c3ccc(Cl)cc3)c2C1	78

Asked: Given the entry COc1ccccc1-n1nc2c(c1-c1ccc(Cl)cc1)C[C@H](OCC(C)C)C2 , report its measured inhibition at 0.33 µM.
Given back: 94

Asked: Which inhibition at 0.33 µM reading was recorded for the compound COc1ccccc1-n1nc2c(c1-c1ccc(C#N)cc1)C[C@H](n1ccnc1C)C2 ?
Given back: 44

Asked: Fill in: inhibition at 0.33 µM of COc1ccc(-c2c3c(nn2-c2ccccc2OC)CC2(C3)OCC(C)(C)CO2)cn1 is ___
Given back: 81

Asked: Name the recorded inhibition at 0.33 µM for COc1ccccc1-n1nc2c(c1-c1ccc(Cl)cc1)C/C(=N/O)C2 .
Given back: 31

Asked: I have this compound here, CC(C)S(=O)(=O)N(C)[C@@H]1Cc2nn(-c3cccc4c3OCC4)c(-c3ccc(Cl)cc3)c2C1 , and I need its recorded inhibition at 0.33 µM.
Given back: 94

* * *

- Assay system: N-type calcium channel (Homo sapiens, UniProt Q00975)
- Sequence (Q00975 whole entry): as the sequence (Q00975 whole entry) above
- Sequence (P54284 whole entry partner): as the sequence (P54284 whole entry partner) above
- Sequence (P54289 25-946 partner limits assumed): as the sequence (P54289 25-946 partner limits assumed) above
- Sequence (P54289 947-1103 partner limits assumed): as the sequence (P54289 947-1103 partner limits assumed) above
- Assay overview: Automated Electrophysiology Assay (QPatch-HT whole-cell patch clamp; low- and high-frequency stimulation)
- Type: cell-based
- Condition context: 0.1 μM; high-frequency stimulation (15th pulse); read-out: QPatch at High Frequency % Inhibition
Value kind: inhibition at 0.1 µM (%)
Respond with the bare value in %.

// below: answered compounds
Compound	Value kind	Measure unit	Numeric result
COc1ccccc1-n1nc2c(c1-c1ccc(Cl)cc1)C[C@H](OC1CCCCC1)C2 [Compound 88]	inhibition at 0.1 µM	%	33
COc1ccccc1-n1nc2c(c1-c1ccc(Cl)cc1)C[C@H](OC(=O)C1CCCCC1)C2 [Compound 78]	inhibition at 0.1 µM	%	27
COc1ccccc1-n1nc2c(c1-c1ccc(Cl)cc1)CC(NS(C)(=O)=O)C2 (stereo not shown) [Compound 32]	inhibition at 0.1 µM	%	20

Now look at this one.
Asked: Quick one: inhibition at 0.1 µM of COc1ccccc1-n1nc2c(c1-c1ccc(Cl)cc1)C[C@H](OC(=O)C(C)C)C2 [Compound 81] ?
Given back: 12

* * *

Known IC50 of a selection of compounds
- Assay system: N-type calcium channel (α1B (Cav2.2), β3 and α2δ subunits) (Homo sapiens)
- Assay overview: Functional Assay: Antagonism of N-Type Calcium Channel (FDSS calcium mobilization, KCl depolarization)
- Assay type: cell-based
- Condition context: HEK cell line, 50 mM KCl depolarization, six-point concentration-response; read-out: FDSS IC50
Kindly answer with a numeric value in µM, unit omitted.

Example compounds with recorded IC50:
Compound	Value kind	Numeric result
COc1ccccc1-n1nc2c(c1-c1ccc(Cl)cc1)CC(N(C)S(C)(=O)=O)C2 (stereo not drawn) [Compound 37]	IC50	0.0064
CCOc1ccccc1-n1nc2c(c1-c1ccc(Cl)cc1)C[C@@H](NS(=O)(=O)C(C)C)C2 [Compound 44]	IC50	0.032

Turning to the following compound.
Asked: Which IC50 value is on record for CCOc1ccccc1-n1nc2c(c1-c1ccc(Cl)cc1)CC(n1ccnc1)C2 (stereo not drawn) [Compound 39] ?
Given back: 0.038
